biological target: T1, cMet-Fc fusion protein (extracellular domain of the cMet receptor expressed as an Fc-fusion protein) (human, UniProt P08581 25-932); assay: phage ELISA, cMet-Fc vs TRAIL-Fc
T1 construct: extracellular domain; also called soluble cMet-Fc-fusion protein; soluble cMet receptor; not shown: Fc part
T1 sequence (P08581 25-932): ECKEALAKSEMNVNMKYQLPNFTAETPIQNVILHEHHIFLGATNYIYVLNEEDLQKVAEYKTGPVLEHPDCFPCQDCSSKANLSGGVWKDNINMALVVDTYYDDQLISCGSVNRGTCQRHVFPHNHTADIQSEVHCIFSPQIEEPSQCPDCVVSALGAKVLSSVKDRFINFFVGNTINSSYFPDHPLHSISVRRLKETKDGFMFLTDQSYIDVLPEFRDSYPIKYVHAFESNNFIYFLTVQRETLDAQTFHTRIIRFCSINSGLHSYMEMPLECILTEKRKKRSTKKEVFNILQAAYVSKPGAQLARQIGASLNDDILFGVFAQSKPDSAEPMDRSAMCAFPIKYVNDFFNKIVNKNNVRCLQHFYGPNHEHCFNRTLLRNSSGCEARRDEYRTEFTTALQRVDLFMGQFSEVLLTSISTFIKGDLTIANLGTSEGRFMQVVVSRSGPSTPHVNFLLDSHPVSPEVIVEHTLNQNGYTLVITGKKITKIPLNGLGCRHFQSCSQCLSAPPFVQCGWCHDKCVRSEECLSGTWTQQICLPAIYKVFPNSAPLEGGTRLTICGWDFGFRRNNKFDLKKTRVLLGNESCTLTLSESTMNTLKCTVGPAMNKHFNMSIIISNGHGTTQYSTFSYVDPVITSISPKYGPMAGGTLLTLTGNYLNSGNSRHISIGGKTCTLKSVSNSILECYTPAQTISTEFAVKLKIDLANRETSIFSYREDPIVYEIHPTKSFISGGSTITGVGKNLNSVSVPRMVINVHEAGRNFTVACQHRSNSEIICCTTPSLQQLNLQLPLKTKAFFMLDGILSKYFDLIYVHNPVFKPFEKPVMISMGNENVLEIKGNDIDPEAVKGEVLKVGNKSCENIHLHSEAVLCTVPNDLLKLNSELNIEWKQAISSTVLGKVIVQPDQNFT
// label = true (1) if Protein ELISA (fold over background) is not less than 4 fold, otherwise false (0)

BINDER	LABEL
AGVLQCIGFEWFCDIWGT [423-C11 peptide-displaying phage (SEQ ID NO: 022)]	false (0)
GSMLGCLFEHQNKYDCYVLAP [443-D04 peptide-displaying phage (SEQ ID NO: 379)]	false (0)
AGYPECKDNYHWCEWKGT [457-A09 peptide-displaying phage (SEQ ID NO: 024)]	true (1)
GDDFHCEFIDDYQSEICYFNDP [333-C03 peptide-displaying phage (SEQ ID NO: 391)]	true (1)

Incoming: Exam item: decide whether the reported Protein ELISA (fold over background) for AQEWQTWTWNMIEVISENKTP [117-F03 peptide-displaying phage (SEQ ID NO: 468)] is at least 4 fold.
Outgoing: false (0)

The measurements presented in this section are drawn from patent US20120039802A1.
